# protocol summary: Cytotoxicity (MTT) in HepG2.2.15 cells
# Format: cell-based
# run parameters: human, 6 days treatment, read-out: HepG2.1.15 cytotoxicity (CC50)
observation type: CC50 at 6 days

As a guide, the following entries are already answered.
Prompt: Value lookup for CC50 at 6 days; key = Cc1ncnc(C)c1-c1ccc2c(Cl)c(C(=O)N3CC[C@H](C(=O)Nc4ccc(F)c(C#N)c4)[C@@H]3C)[nH]c2c1
Completion: 10 to 25 µM

Prompt: Could you share which CC50 at 6 days value was measured for Cc1ncnc(C)c1-c1ccc(C(=O)N2CC[C@H](C(=O)Nc3ccc(F)c(Cl)c3)[C@@H]2C)[nH]1 ?
Completion: 10 to 25 µM

Prompt: What value of CC50 at 6 days has been reported for the following compound? Cc1cc(NC(=O)[C@H]2CCN(C(=O)c3ccc(-c4cccnc4C#N)[nH]3)C2)ccc1F
Completion: > 25 µM

Prompt: Need CC50 at 6 days, item Cc1cc(NC(=O)[C@H]2CCN(C(=O)c3ccc(-c4c(C)cc[nH]c4=O)[nH]3)[C@H]2C)ccc1F
Completion: > 25 µM

Prompt: Returns the measured CC50 at 6 days for the input compound. Input: Cc1ncnc(C)c1-c1ccc(C(=O)N2CC[C@H](C(=O)Nc3cc(F)c(F)c(Cl)c3)C2)[nH]1
Completion: 10 to 25 µM

Prompt: So what does the record say about CC50 at 6 days for C[C@H]1[C@@H](C(=O)Nc2cc(F)c(F)c(F)c2)CCN1C(=O)c1ccc(Cl)[nH]1 ?
Completion: > 25 µM

Could you now look at the following compound, please?
Prompt: Reported CC50 at 6 days, compound Cc1cnnc(C)c1-c1ccc(C(=O)N2CC[C@H](C(=O)Nc3ccc(F)c(F)c3)C2)[nH]1 : ____
Completion: > 25 µM
